- experiment notes: Hepatocytes stability assay (human hepatocytes)
- Assay type: in vitro ADME
- applied conditions: both sexes, cryopreserved hepatocytes, 1 μM test compound, 1×10^6 cell/mL, read-out: CLint (μL/min/million cells)
Lab note: anything with hepatocyte CLint at 1 μM at or over 60 µL/min/1e6 cells counts as met; the rest go in not met.

Field: example entries. Status: answers known.
CS(=O)(=O)N[C@H]1CCN(c2ccccn2)CC1COC1CCC(c2cccc(C#N)c2)CC1 (stereo partly drawn) = met
CS(=O)(=O)N[C@H]1CCN(c2ccccn2)CC1COC1CCC(c2cccc(O)c2)CC1 (stereo partly drawn) = met
CS(=O)(=O)N[C@H]1CCN(c2ccccn2)CC1COC1CCC(c2ccnnc2)CC1 (stereo partly drawn) = not met
CS(=O)(=O)N[C@H]1CCN(Cc2cccnc2)CC1COC1CCC(c2ccccc2)CC1 (stereo partly drawn) = met

q: Does hepatocyte CLint at 1 μM meet or surpass 60 µL/min/1e6 cells for CS(=O)(=O)N[C@H]1CCN(c2ccccn2)CC1COC1CCC(c2ncccn2)CC1 (stereo partly drawn) ?
a: not met

q: Say whether CS(=O)(=O)N[C@H]1CCN(Cc2ccncc2)CC1COC1CCC(c2ccccc2)CC1 (stereo partly drawn) shows hepatocyte CLint at 1 μM of 60 µL/min/1e6 cells or more.
a: met

q: Identify whether the reported hepatocyte CLint at 1 μM of the following compound is 60 µL/min/1e6 cells or greater: CS(=O)(=O)N[C@H]1CCN(c2ccccn2)CC1COC1CCN(c2ncccn2)CC1 (stereo partly drawn)
a: not met

q: Evaluate CS(=O)(=O)N[C@H]1CCN(c2cc(F)ccn2)CC1COC1CCC(c2ccccc2)CC1 (stereo partly drawn) : hepatocyte CLint at 1 μM at minimum 60 µL/min/1e6 cells?
a: met

q: Hi, just wondering whether Cc1cc(C)cc(C2CCC(OCC3CN(c4ccccn4)CC[C@@H]3NS(C)(=O)=O)CC2)c1 (stereo partly drawn) shows hepatocyte CLint at 1 μM of 60 µL/min/1e6 cells or higher.
a: not met
